quantity_kind: melting point

{"compound": "CN1CCN(c2cc(Cl)cc3c2C(=O)C(C)(c2ccc(O)cc2)C(=O)N3Cc2ccccc2)CC1 (stereo not drawn) [Example 2]", "test_result": "258 to 259 °C"}
{"compound": "CC1(c2ccc(I)cc2)C(=O)c2c(N3CCNCC3)cc(Cl)cc2N(Cc2ccccc2)C1=O (stereo not drawn) [Example 21]", "test_result": "176 to 177 °C"}
{"compound": "COc1ccc(C2(C)C(=O)c3c(N4CCNCC4)cc(Cl)cc3N(Cc3cccc(Br)c3)C2=O)cc1 (stereo not drawn) [Example 33]", "test_result": "113 to 114 °C"}
{"compound": "CCN1C(=O)C(C)(c2ccc(OC)cc2)C(=O)c2c(N3CCNCC3)cc(Cl)cc21 (stereo not drawn) [Example 46]", "test_result": "127 to 129 °C"}
{"compound": "COc1ccc(C2(C)C(=O)c3c(N4CCN(C)CC4)cc(Cl)cc3N(Cc3ccccc3)C2=O)cc1 (stereo not drawn) [Example 1]", "test_result": "66 to 67 °C"}
{"compound": "COc1ccc(C2(C)C(=O)c3c(N4CCNCC4)cc(Cl)cc3N(Cc3cccc(OC)c3)C2=O)cc1 (stereo not drawn) [Example 27]", "test_result": "110 to 112 °C"}
{"compound": "COc1ccc(C2(C)C(=O)c3c(N4CCN(C)CC4)cc(Cl)cc3N(Cc3cccc(N)c3)C2=O)cc1 (stereo not drawn) [Example 9]", "test_result": "90 to 93 °C"}
{"compound": "CN1CCN(c2cc(Cl)cc3c2C(=O)C(C)(c2ccccc2)C(=O)N3Cc2ccccc2)CC1 (stereo not drawn) [Example 11]", "test_result": "138 to 140 °C"}
{"compound": "CC1(c2ccc(O)cc2)C(=O)c2c(N3CCNCC3)cc(Cl)cc2N(Cc2ccc(O)cc2)C1=O (stereo not drawn) [Example 32]", "test_result": "241 to 242 °C"}

###

Overview of reported IC50 across a group of compounds:
- study_target: hD4.2 receptor (Homo sapiens, UniProt P21917, DEL265-296)
- Construct: purchased BioSignal Packard Inc., Montreal, Canada
- Sequence (P21917 with tags, fused parts or gaps DEL265-296): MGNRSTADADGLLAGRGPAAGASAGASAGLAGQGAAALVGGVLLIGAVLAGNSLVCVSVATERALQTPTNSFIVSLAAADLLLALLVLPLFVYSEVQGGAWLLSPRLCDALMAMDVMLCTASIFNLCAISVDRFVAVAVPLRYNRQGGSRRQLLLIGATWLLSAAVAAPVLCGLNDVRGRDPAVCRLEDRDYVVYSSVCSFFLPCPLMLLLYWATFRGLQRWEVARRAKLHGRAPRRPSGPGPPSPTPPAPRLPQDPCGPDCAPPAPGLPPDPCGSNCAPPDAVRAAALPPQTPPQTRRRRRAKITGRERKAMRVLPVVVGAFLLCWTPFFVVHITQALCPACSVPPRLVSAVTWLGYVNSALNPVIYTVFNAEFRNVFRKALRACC
- protocol_notes: Radioligand binding, dopamine D4 ([3H]YM-09151-2)
- conditions: Table 4; [3H]YM-09151-2 0.06 nM; read-out: Binding affinity, IC50 (nM) D4
quantity_kind: IC50 (nM)

{"compound": "CCN(CC)c1ccc(C2(C)C(=O)c3c(N4CCN(C)CC4)cc(Cl)cc3N(Cc3ccccc3)C2=O)cc1 (stereo not shown)", "quantity_kind": "IC50", "test_result": 8750}
{"compound": "CC1(c2ccc(O)cc2)C(=O)c2c(N3CCNCC3)cc(Cl)cc2N(Cc2ccccc2O)C1=O (stereo not shown)", "quantity_kind": "IC50", "test_result": 8760}
{"compound": "CC1(c2ccc([N+](=O)[O-])cc2)C(=O)c2c(N3CCNCC3)cc(Cl)cc2N(Cc2ccccc2)C1=O (stereo not shown)", "quantity_kind": "IC50", "test_result": 9460}
{"compound": "COc1ccc(C2(C)C(=O)c3c(N4CCNCC4)cc(Cl)cc3N(Cc3cccc([N+](=O)[O-])c3)C2=O)cc1 (stereo not shown)", "quantity_kind": "IC50", "test_result": 9090}
